- Test system: human cardiomyocyte preparation
Measure: sarcomere shortening

Here is how some compounds turned out for sarcomere shortening.
| Compound | Value |
| --- | --- |
| COc1ccccc1OCC(O)CN1CCN(CC(=O)Nc2c(C)cccc2C)CC1 (stereo not shown) [ranolazine] | inhibited |
| Cc1cccc(C)c1OCC(C)N (stereo not shown) [mexiletine] | inhibited |
| CC[C@H]1OC(=O)[C@H](C)[C@@H](O[C@H]2C[C@@](C)(OC)[C@@H](O)[C@H](C)O2)[C@H](C)[C@@H](O[C@@H]2O[C@H](C)C[C@H](N(C)C)[C@H]2O)[C@](C)(OC)C[C@@H](C)C(=O)[C@H](C)[C@@H](O)[C@]1(C)O [clarithromycin] | inhibited |
| O=c1[nH]c2ccccc2n1CCCN1CCC(n2c(=O)[nH]c3cc(Cl)ccc32)CC1 [domperidone] | inhibited |
| CN(CCOc1ccc(NS(C)(=O)=O)cc1)CCc1ccc(NS(C)(=O)=O)cc1 [dofetilide] | no effects |
| CC(C)NCC(O)c1ccc(NS(C)(=O)=O)cc1 (racemic) [sotalol, d,l-sotalol] | no effects |

Next, consider the following compound.
[Q] May I ask what sarcomere shortening has been recorded for COc1cc(N)c(Cl)cc1C(=O)NC1CCN(CCCOc2ccc(F)cc2)CC1OC (stereo not shown) [cisapride] ?
[A] inhibited
